target_or_test_system: T1, mouse B7-H3 expressed on the surface of mouse cancer cell lines (CT26, B16F10, TC-1) (mouse, UniProt Q8VE98 29-316)
T1 construct: whole, on cells; also called 세포 표면 발현 마우스 B7-H3
T1 sequence (looked up): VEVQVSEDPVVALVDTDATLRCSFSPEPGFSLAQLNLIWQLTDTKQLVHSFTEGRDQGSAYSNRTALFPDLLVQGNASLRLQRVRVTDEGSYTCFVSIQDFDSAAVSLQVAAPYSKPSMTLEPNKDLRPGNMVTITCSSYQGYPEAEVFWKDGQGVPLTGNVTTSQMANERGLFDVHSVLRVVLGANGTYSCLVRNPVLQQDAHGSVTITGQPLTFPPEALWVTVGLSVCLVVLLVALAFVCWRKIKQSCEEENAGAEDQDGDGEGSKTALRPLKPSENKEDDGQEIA
assay_comment: flow cytometry on CT26, B16F10 and TC-1 cells, 10 ㎍/㎖
measured_attribute: binding result

binder="anti-B7-H3 antibody D8G (full IgG form) (antibody, V domains shown) VH: EVQLLESGGGLVQPGGSLRLSCAASGFTFSSYSMSWVRQAPGKGLEWVSGIYSDGSNTYYADSVKGRFTISRDNSKNTLYLQMNSLRAEDTAVYYCAKMLHRFDYWGQGTLVTVSS VL: QSVLTQPPSASGTPGQRVTISCSGSSSNIGSNSVTWYQQLPGTAPKLLIYADSQRPSGVPDRFSGSKSGTSASLAISGLRSEDEADYYCGTWDSSLNAYVFGGGTKLTVLG" result=binds
binder="anti-B7-H3 antibody F6V (full IgG form) (antibody, V domains shown) VH: EVQLLESGGGLVQPGGSLRLSCAASGFTFSDYAMSWVRQAPGKGLEWVSGISPGGSNTYYADSVKGRFTISRDNSKNTLYLQMNSLRAEDTAVYYCAKDAWIARLLLFDYWGQGTLVTVSS VL: QSVLTQPPSASGTPGQRVTISCSGSSSNIGSNAVTWYQQLPGTAPKLLIYYNNKRPSGVPDRFSGSKSGTSASLAISGLRSEDEADYYCGTWDDSLSGYVFGGGTKLTVLG" result=binds
